biological target: Bile acid receptor (Homo sapiens); assay: OT_FXR_FXRSRC1_0480: Odyssey Thera (OT) 8-hour HEK293T Protein-Complementation Assay for Farnesoid X receptor/SRC-1 Co-activator (AID 2283383)
Results filed as inconclusive are left out. Activity calls are given as the source filed them. How the source made its calls: active means hit-call score of the fitted dose curve at least 0.9, where 1 is the maximum; inconclusive means response in the unintended direction; inactive means score below 0.9.

{"compound": "O=C(Cc1ccccc1)c1ccccc1", "outcome": "inactive"}
{"compound": "Fc1ccc(C2(Cn3cncn3)OC2c2ccccc2Cl)cc1 (stereo not drawn)", "outcome": "inactive"}
{"compound": "CCC(=O)C(CC(C)N(C)C)(c1ccccc1)c1ccccc1 (stereo not drawn)", "outcome": "inactive"}

* * *

read-out: Lipoprotein lipase (LPL), LPL (gene 4023); experiment: LTEA_HepaRG_LPL: Life Technologies and Expression Analysis (LTEA) Assay for Lipoprotein lipase (LPL) using HepaRG (AID 2283515); conditions: mRNA level, 48 h; actives raise or lower the signal
Active and inactive are the calls of the source. How the source made its calls: active means hit-call score of the fitted dose curve at least 0.9, where 1 is the maximum; inactive means score below 0.9.
measured_endpoint: AC50

{"compound": "CC12CC1(C)C(=O)N(c1cc(Cl)cc(Cl)c1)C2=O (stereo unspecified)", "AC50": "inactive"}
{"compound": "CC(=O)[O][Hg][c]1ccccc1", "AC50": "29.3 µM (active)"}
{"compound": "CC(C)(OO)c1ccccc1", "AC50": "inactive"}
{"compound": "O=C(O)C(F)(F)C(F)(F)C(F)(F)C(F)(F)C(F)(F)C(F)(F)C(F)(F)C(F)(F)C(F)(F)C(F)(F)F", "AC50": "47.8 µM (active)"}

Looking for the measured AC50 of `CCN1CCC2(CC1)COc1cc3c(cc12)N(C(=O)c1ccc(-c2ccc(-c4nnc(C)o4)cc2C)cc1)CC3` , can you help?
32.7 µM (active)

Can you handle `CN(C)N=O` next?
inactive

* * *

Target: Bile acid receptor (Homo sapiens) (UniProt Q96RI1)
Sequence (Q96RI1 whole entry, looked up): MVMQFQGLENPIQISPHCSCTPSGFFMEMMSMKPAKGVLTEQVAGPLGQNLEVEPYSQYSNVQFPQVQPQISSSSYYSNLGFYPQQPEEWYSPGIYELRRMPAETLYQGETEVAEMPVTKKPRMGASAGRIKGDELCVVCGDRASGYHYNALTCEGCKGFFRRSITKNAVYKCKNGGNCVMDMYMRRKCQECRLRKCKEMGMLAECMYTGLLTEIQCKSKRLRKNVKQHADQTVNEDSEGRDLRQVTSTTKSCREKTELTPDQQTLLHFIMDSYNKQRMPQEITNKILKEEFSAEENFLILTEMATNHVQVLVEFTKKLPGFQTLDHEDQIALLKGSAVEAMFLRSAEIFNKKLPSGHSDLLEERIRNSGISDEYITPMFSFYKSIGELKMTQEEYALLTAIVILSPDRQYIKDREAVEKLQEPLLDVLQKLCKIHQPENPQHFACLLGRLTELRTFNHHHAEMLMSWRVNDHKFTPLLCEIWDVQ
Test: OT_FXR_FXRSRC1_1440: Odyssey Thera (OT) 24-hour HEK293T Protein-Complementation Assay for Farnesoid X receptor/SRC-1 Co-activator (AID 2283384)
Method: OT_FXR_FXRSRC1_1440 is a cell-based assay that uses HEK293T, a human kidney cell line, with measurements taken at 24 hours after chemical dosing in a 384-well plate.OT_FXR_FXRSRC1_1440 is one of one assay component(s) measured or calculated from the OT_FXR_FXRSRC1_1440 assay. […] This assay endpoint, OT_FXR_FXRSRC1_1440, was analyzed in the positive analysis fitting direction relative to DMSO as the negative control and baseline of activity. […]
Records with an inconclusive call do not appear. Active and inactive are the calls of the source. How the source made its calls: active means hit-call score of the fitted dose curve at least 0.9, where 1 is the maximum; inconclusive means response in the unintended direction; inactive means score below 0.9.
measured_endpoint: AC50

{"sample_smiles": "c1cc[c]([Hg][c]2ccccc2)cc1", "result": "51.6 µM (active)"}
{"sample_smiles": "CCC[CH2][Sn]([Cl])([Cl])[Cl]", "result": "inactive"}
{"sample_smiles": "O=C(O)C(F)(F)C(F)(F)C(F)(F)C(F)(F)C(F)(F)C(F)(F)C(F)(F)C(F)(F)C(F)(F)C(F)(F)F", "result": "inactive"}

* * *

assay: BSK_4H_SRB: Viability Assessment in the BioMAP Diversity Plus: 4H Assay (AID 2283027); settings: primary human endothelial cells (HUVEC);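 further: cells exposed to compound for 24 h before staining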
The source made the active and inactive calls. How the source made its calls: active means hit-call score of the fitted dose curve at least 0.9, where 1 is the maximum; inactive means score below 0.9.
In this exercise, the only acceptable responses are 1 (yes) (active), 0 (no) (inactive)

{"compound": "CCOP(=S)(OCC)Oc1ccc(S(C)=O)cc1 (centres undefined)", "category_label": "0 (no)"}

Test call, this compound: `OCc1ccco1`
0 (no)

Try this compound next: CC(=O)C(Cl)C(=O)N(C)C (centres undefined)
0 (no)

Now consider `CCN1CCC2(CC1)COc1cc3c(cc12)N(C(=O)c1ccc(-c2ccc(-c4nnc(C)o4)cc2C)cc1)CC3` and answer again.
1 (yes)

Another: `C=CC(=O)OCCCCCC(C)C`
0 (no)

Also `COP(=S)(OC)Oc1cc(Cl)c(Cl)cc1Cl` ?
1 (yes)

Same lookup for `Nc1cccc2ccccc12` , please.
0 (no)

Likewise for `O=Cc1cccc(Oc2ccccc2)c1` ?
0 (no)

What would you report for `COP(=S)(OC)Oc1ccc(S(=O)(=O)N(C)C)cc1` ?
0 (no)

Please answer likewise for `NC(=O)O`
0 (no)

Next compound: `O=C(O)C(F)(F)C(F)(F)C(F)(F)C(F)(F)C(F)(F)C(F)(F)F`
0 (no)

Please do the same for `NC(=S)Nc1ccccc1` as well.
0 (no)

Record: `C=C(C)C(=O)[O][Sn]([CH2]CCC)([CH2]CCC)[CH2]CCC`
1 (yes)

Can you handle `CCNc1nc(NC(C)(C)C)nc(SC)n1` next?
0 (no)

Next record, please: `COc1cc(-c2ccc(N)c(OC)c2)ccc1N`
0 (no)

Query ClC1(Cl)C2(Cl)C3(Cl)C4(Cl)C(Cl)(Cl)C5(Cl)C3(Cl)C1(Cl)C5(Cl)C24Cl (centres undefined) next
0 (no)
